Measured values drawn from patent US5124347A for this set.

Would you kindly list IC50 for each of these molecules?
- assayed system: 5-lipoxygenase (Rattus norvegicus, UniProt P12527)
- Sequence (P12527 whole entry): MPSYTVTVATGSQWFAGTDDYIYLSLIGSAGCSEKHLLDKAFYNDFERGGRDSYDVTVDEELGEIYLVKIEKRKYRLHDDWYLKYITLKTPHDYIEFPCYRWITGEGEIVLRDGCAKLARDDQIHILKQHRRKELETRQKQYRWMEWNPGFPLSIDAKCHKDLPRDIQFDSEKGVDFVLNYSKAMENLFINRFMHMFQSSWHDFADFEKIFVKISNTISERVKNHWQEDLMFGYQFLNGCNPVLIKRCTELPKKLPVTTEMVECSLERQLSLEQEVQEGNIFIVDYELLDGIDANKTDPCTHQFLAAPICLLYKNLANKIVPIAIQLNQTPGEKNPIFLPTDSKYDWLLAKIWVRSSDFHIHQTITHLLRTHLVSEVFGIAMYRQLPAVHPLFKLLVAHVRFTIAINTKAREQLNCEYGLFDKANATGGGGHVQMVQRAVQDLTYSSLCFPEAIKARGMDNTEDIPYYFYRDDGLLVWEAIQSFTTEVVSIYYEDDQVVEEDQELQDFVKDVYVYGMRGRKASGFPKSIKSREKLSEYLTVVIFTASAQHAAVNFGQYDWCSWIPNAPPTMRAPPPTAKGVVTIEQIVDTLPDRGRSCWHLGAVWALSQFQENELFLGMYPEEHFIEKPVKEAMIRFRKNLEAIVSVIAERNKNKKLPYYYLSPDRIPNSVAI
- test details: ARBL whole cell 5-lipoxygenase assay (RBL-1 cells, inhibition of LTB4 formation)
- condition details: calcium ionophore A23187 (5 μM)
// return numeric value only (unit: nM, not printed)

In plain terms, CC(C)(C)c1cc(/C=C2\C(=O)Nc3ccccc32)cc(C(C)(C)C)c1O has a documented IC50 of 930

In plain terms, COc1cccc2c1NC(=O)/C2=C\c1cc(C(C)(C)C)c(O)c(C(C)(C)C)c1 has a documented IC50 of 430

====

- assayed system: 5-lipoxygenase (Rattus norvegicus)
- Construct: host or cells: RBL-1 (rat basophilic leukemia)
- test details: ARBL whole cell 5-lipoxygenase assay (RBL-1 cells, inhibition of LTB4 formation)
- Type: cell-based
- condition details: at 10 μM, calcium ionophore A23187 (5 μM)
measured metric: inhibition at 10 µM

In plain terms, Cc1cccc2c1/C(=C/c1cc(C(C)(C)C)c(O)c(C(C)(C)C)c1)C(=O)N2 [Example 10] has a documented inhibition at 10 µM of 100%

In plain terms, CC(C)(C)c1cc(/C=C2\C(=O)Nc3cccc(Cl)c32)cc(C(C)(C)C)c1O [Example 9] has a documented inhibition at 10 µM of 48%

In plain terms, Cc1ccc2c(c1)/C(=C/c1cc(C(C)(C)C)c(O)c(C(C)(C)C)c1)C(=O)N2 [Example 2] has a documented inhibition at 10 µM of 100%

In plain terms, CC(C)(C)c1cc(/C=C2\C(=O)Nc3ccc(C(=O)O)cc32)cc(C(C)(C)C)c1O [Example 12] has a documented inhibition at 10 µM of 100%

In plain terms, Cc1cccc2c1NC(=O)/C2=C\c1cc(C(C)(C)C)c(O)c(C(C)(C)C)c1 [Example 7] has a documented inhibition at 10 µM of 100%

====

- assayed system: cyclooxygenase (Rattus norvegicus, UniProt Q63921)
- Sequence (Q63921 27-602): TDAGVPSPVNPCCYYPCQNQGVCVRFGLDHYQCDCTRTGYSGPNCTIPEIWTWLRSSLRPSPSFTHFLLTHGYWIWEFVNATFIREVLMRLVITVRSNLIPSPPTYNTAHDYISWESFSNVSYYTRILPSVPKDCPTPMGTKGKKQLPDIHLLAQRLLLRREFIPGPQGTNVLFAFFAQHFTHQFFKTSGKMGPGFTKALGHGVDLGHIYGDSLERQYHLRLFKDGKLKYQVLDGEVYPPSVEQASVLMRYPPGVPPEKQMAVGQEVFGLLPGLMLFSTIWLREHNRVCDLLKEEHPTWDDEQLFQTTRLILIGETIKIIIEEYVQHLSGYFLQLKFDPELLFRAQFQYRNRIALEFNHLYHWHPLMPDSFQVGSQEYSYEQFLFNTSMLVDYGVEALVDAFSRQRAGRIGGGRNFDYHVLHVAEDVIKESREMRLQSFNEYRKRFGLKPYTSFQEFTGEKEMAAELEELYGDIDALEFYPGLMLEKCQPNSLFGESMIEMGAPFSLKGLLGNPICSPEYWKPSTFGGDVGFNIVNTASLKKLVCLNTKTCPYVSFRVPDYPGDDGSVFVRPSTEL
- test details: ARBC whole cell cyclooxygenase assay (RBL-1 cells, inhibition of PGF2α formation)
- condition details: calcium ionophore A23187 (5 μM)
- Text: ARBL/ARBC WHOLE CELL 5-LIPOXYGENASE AND CYCLOOXYGENASE ASSAYS The rat basophilic leukemia cell line (RBL-1) was obtained from the American Type Culture Collection (Rockville, Md.). Radioimmunoassay (RIA) kits of LTB4 and PGF2α were obtained from Amersham (Arlington Heights, Ill.) and Seragen (Boston, Mass.), respectively. All tissue culture media were obtinaed from GIBCO (Grand Island, N.Y.). […]
measured metric: IC50

// IC50 (cyclooxygenase (Rattus norvegicus, UniProt Q63921)) for COc1cccc2c1NC(=O)/C2=C\c1cc(C(C)(C)C)c(O)c(C(C)(C)C)c1 [Example 5] = 6.07 µM

// IC50 (cyclooxygenase (Rattus norvegicus, UniProt Q63921)) for CC(C)(C)c1cc(/C=C2\C(=O)Nc3ccccc32)cc(C(C)(C)C)c1O [Example 1] = 1.5 µM
